system: EKVX; test: NCI tumour cell line growth inhibition, 48 h
The source made the active and inactive calls. Rule as the data show it: active = GI50 up to about 1.1 µM and inactive = higher.
Possible outcomes: t for active, f for inactive

> print(dat)
                                    compound  assigned.class
 1  CC(C)=CCC[C@@H](C)C1=C(O)C(=O)C(C)=C(Nc2ccccc2F)C1=O               f
 2            Nn1c(-c2ccccc2Cl)nc2ccccc2c1=O               f
 3  CO/C1=C\C(C)=C\C(C)C(O)C(C)C/C(C)=C/C=C/C(OC)C(C(C)C(O)C(C)C2(O)CC(O)C(C)C(C(C)C)O2)OC1=O (stereo unspecified)               t
 4         O=Cc1ccc(-c2ccc(S(=O)(=O)O)cc2)o1               f
 5  C/C(=N\NC(=O)c1ccccc1O)c1cccc(/C(C)=N/NC(=O)c2ccccc2O)n1               f
 6         COc1c(O)c2c3c(cc(C)cc3c1C(C)C)OC2               f
 7  CC(=O)O[C@H]1CC[C@H]2[C@@H]3CCC4C(C)=NNC(=O)C4[C@H]3CC[C@]12C (stereo partly specified)               f
 8  CCOC(=O)c1c(-c2ccc(O)c(OC)c2)c(C#N)c(=S)n(C2OC(CO)C(O)C(O)C2O)c1-c1ccccc1 (stereo unspecified)               f
 9  COc1ccc2c3c([nH]c2c1[N+](=O)[O-])C(C)N(C)CC3 (stereo unspecified)               f
10  O=C1OC(c2ccccc2)=NC1c1ccccc1 (stereo unspecified)               f
11  S=C(Nc1ccccc1)Nc1ccccc1SC(/C=C/NNC1=NN=C(c2ccccc2)C(c2ccccc2)N1)c1ccccc1 (stereo unspecified)               f
12                Oc1c(Cl)c(Cl)c(O)c2c1CCCC2               f
13  Cc1ccc(/C=C2\Cc3cc(C)c(C)cc3C2=O)c(C(=O)O)c1               f
14                Cc1oc2nc(N(C)C)nc(NN)c2c1C               f
15  O=C(Nc1ccccc1)c1cc(S(=O)(=O)Nc2nc3cccnc3[nH]2)c(SSc2cc(Cl)c(C(=O)Nc3ccccc3)cc2S(=O)(=O)Nc2nc3cccnc3[nH]2)cc1Cl               f
16  COc1ccc(C2=NNC(c3cc4cc(Br)ccc4nc3Cl)C2)cc1 (stereo unspecified)               f

----------
system: OVCAR-3; assay: NCI tumour cell line growth inhibition, 48 h
Active and inactive are the calls of the source. Cut-off read from the data, not from the text of the source: active = GI50 up to about 1.1 µM and inactive = higher.
Possible outcomes: y (active), n (inactive)

Compound	System name	Assigned class
CC1(C)[C@@H]2C[C@H]1C(Cc1cccc(C[C@H]3c4cc(-c5ccccn5)ncc4[C@H]4C[C@@H]3C4(C)C)c1)c1cc(-c3ccccn3)ncc12 (stereo partly drawn)	OVCAR-3	y
COc1c(O)c2c3c(cc(C)cc3c1C(C)C)OC2	OVCAR-3	n
Cc1[nH]n(-c2ncc(C(=O)O)c(=O)[nH]2)c(=O)c1CCO	OVCAR-3	n
c1ccc2c(c1)OCCOCCOc1ccccc1OCCO2	OVCAR-3	n
CCOc1ccc(OCC(=O)O)c2c1CCCC2=O	OVCAR-3	n
CC1=C2C(O)C(C(C)CO)C(O)CC2(C)C(O)CC1 (stereo not drawn)	OVCAR-3	n
O=C1Nc2ccc(S(=O)(=O)NCCO)cc2/C1=C1/Nc2ccccc2C1=O	OVCAR-3	n
CCc1cc(C)cc2[n+]1CC=C2C.[O-][Cl+3]([O-])([O-])[O-]	OVCAR-3	n
COc1cc2cc(C(=O)Nc3cc4n(n3)-c3ccccc3C4)[nH]c2c(OC)c1OC	OVCAR-3	n
CN(C)CCNC(=O)c1cc([N+](=O)[O-])cc2c1Oc1ccccc1O2	OVCAR-3	n
C=CCC1(O)CC(n2cc(C)c(=O)[nH]c2=O)OC1CO[Si](C)(C)C(C)(C)C (stereo not drawn)	OVCAR-3	n
COc1cc2ccc(/C=C\[N+](=O)[O-])cc2cc1OC	OVCAR-3	n
COc1cc(N2C(=O)C(=O)C3(CCCCC3)C2=O)cc(OC)c1OC	OVCAR-3	n
Cc1cccc(C)c1NC(=O)CCCC(=O)C(C#N)c1ccccc1 (stereo not drawn)	OVCAR-3	n
CC(=O)OCC1OC(n2c(C)c(C)c(C)c(C#N)c2=S)C(OC(C)=O)C(OC(C)=O)C1OC(C)=O (stereo not drawn)	OVCAR-3	n
[O-][S+](Cc1cc2c(cc1Br)OCO2)c1ccccc1 (stereo not drawn)	OVCAR-3	n
COC(=O)c1c(-c2ccc(Cl)cc2)cc2c3ccccc3n(C)c2c1C(=O)OC	OVCAR-3	n
O=c1cc(N2CCCC2)[nH]c(=O)n1-c1cccc(Cl)c1	OVCAR-3	n
CCOC(=O)C(C)Sc1nnc(COc2ccccc2OC)n1-c1ccccc1 (stereo not drawn)	OVCAR-3	n
C/C=C/CP(=O)(c1ccccc1)c1ccccc1	OVCAR-3	n
CC(=O)OC1O[C@@H](C(C)(C)O)CC[C@@H]1[C@H]1CC[C@@]2(C)C3=C(CC[C@]12C)[C@@]1(C)C[C@@H](OC(=O)CC(C)(O)CC(=O)O)[C@H](OC(C)=O)C(C)(C)C1CC3 (stereo partly drawn)	OVCAR-3	n
CC1(C)N=C(/C(Cl)=[N+](/[O-])C(=O)c2ccc(F)cc2)C(C)(C)N1O	OVCAR-3	n
CC(C)OP(=O)(OC(C)C)C(Nc1cccc(C(F)(F)F)c1)c1ccccc1 (stereo not drawn)	OVCAR-3	n
c1cc(C[S+]2CCCC2)ccc1C[S+]1CCCC1	OVCAR-3	n
CC1CCC2[C@@H](C)COC3O[C@]4(C)CCC1C32OO4 (stereo partly drawn)	OVCAR-3	n
Cc1cccc(/N=C2\NC(=O)C(CC(=O)Nc3ccc(C)cc3C)S2)c1 (stereo not drawn)	OVCAR-3	n
COC(=O)C1=C(C)N(NC(=O)c2ccccc2)C2(O)CCCC(=O)C12C (stereo not drawn)	OVCAR-3	n
OC(C1CCC=NN1C(O)(C(F)(F)F)C(F)(F)F)(C(F)(F)F)C(F)(F)F (stereo not drawn)	OVCAR-3	n
